pKd: −log10 of the molar value.
Literature roundup of Son of Sevenless (SOS) (Homo sapiens, UniProt Q07889) data, read-out pKd.
Attribute measured: pKd

compound=C[C@@H](Nc1nc(CO)nc2c1CN(C(=O)N1CCOCC1)C2)c1cc(N)cc(C(F)(F)F)c1 tested_system="Son of Sevenless (SOS) (Homo sapiens, UniProt Q07889)" attribute_measured=pKd recorded_measurement="> 6.40"
compound=C[C@@H](Nc1nc(Cl)nc2c1CN(C(=O)c1ccnnc1)C2)c1cc(N)cc(C(F)(F)F)c1 tested_system="Son of Sevenless (SOS) (Homo sapiens, UniProt Q07889)" attribute_measured=pKd recorded_measurement="> 6.40"
compound="C[C@@H](Nc1nc(Cl)nc2c1CN(C(=O)C1CCN(C)C1)C2)c1cc(N)cc(C(F)(F)F)c1 (stereo partly shown)" tested_system="Son of Sevenless (SOS) (Homo sapiens, UniProt Q07889)" attribute_measured=pKd recorded_measurement="> 6.40"
compound=Cc1c([C@@H](C)NC(=O)c2cn(C3CCOCC3)c(=O)cc2N[C@H]2C[C@H](N(C)C)C2)cccc1C(F)(F)F tested_system="Son of Sevenless (SOS) (Homo sapiens, UniProt Q07889)" attribute_measured=pKd recorded_measurement=7.70
compound=C[C@@H](Nc1nc(Cl)nc2c1CN(C(=O)N1CCNc3ncncc31)C2)c1cc(N)cc(C(F)(F)F)c1 tested_system="Son of Sevenless (SOS) (Homo sapiens, UniProt Q07889)" attribute_measured=pKd recorded_measurement="> 6.40"
compound=Cc1nc(N[C@H](C)c2cc(N)cc(C(F)(F)F)c2)c2cc([C@]3(O)CC[C@H](C(=O)N(C)C)CC3)cn2n1 tested_system="Son of Sevenless (SOS) (Homo sapiens, UniProt Q07889)" attribute_measured=pKd recorded_measurement="≥ 6.40"
compound="C[C@@H](NC(=O)c1cn([C@H]2CCC2(F)F)c(=O)cc1N[C@H]1[C@@H]2CN(C)C[C@@H]21)c1cccc(C(C)(F)F)c1F (single isomer, unassigned)" tested_system="Son of Sevenless (SOS) (Homo sapiens, UniProt Q07889)" attribute_measured=pKd recorded_measurement=8.22
